Measured On: T1, human Claudin18.2 (human)
T1 construct: also called CLDN18.2
Protocol: cell ELISA, Claudin18.2-expressing HEK293T cells
The entries below are paired with their reported log10(EC50).
Measured Metric: log10(EC50) (log10 of the value in nM)

binder="194D3B2 (antibody, V domains shown, mouse hybridoma mAb) VH: QAYLQQSGAELVRSGASVKMSCKASGYPFTSYNMHWVKQTPGQGLEWVGYIYPGNGGTNYNQKFRDKATLTADTSSSTAYMQISRLTSDDSAVYFCLTGRGFAYWGQGTLVTVSA VL: DIVMTQSPSSLIVTPGERVTMSCKSSQSLLNSGNQKNYLTWYQQKPGQPPKLLIYRASTRESGVPDRFTGSGSGTDFTLTISSVQAEDLAVYYCQNDYSYPLTFGIGTKLELK" measured_metric=log10(EC50) obs_value=0.04
binder="231C11E9 (antibody, V domains shown, mouse hybridoma mAb) VH: EVMLVESGGGLVKPGGSLKLSCAASGFTFNNYVMCWVRQTPEKRLEWVATISSGNFYTYYPDSVKGRFTISRDNAKNTLYLQMSSLRSEDTAIYYCASLGRGNALDNWGQGTSVTVSS VL: DIVMTQSPASLTVTAKEKVTMSCRSSQSLLNSGNQKNYLTWYQQKPGQPPKLLIYWASTRESGVPDRFTGSGSGTDFTLTISSVQAEDLAVYYCQNDYSYPFTFGSGTKLEIK" measured_metric=log10(EC50) obs_value=0.28
binder="406E1H7 (antibody, V domains shown, mouse hybridoma mAb) VH: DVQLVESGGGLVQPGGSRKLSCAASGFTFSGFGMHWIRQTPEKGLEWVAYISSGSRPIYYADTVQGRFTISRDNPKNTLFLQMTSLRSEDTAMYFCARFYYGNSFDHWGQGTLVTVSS VL: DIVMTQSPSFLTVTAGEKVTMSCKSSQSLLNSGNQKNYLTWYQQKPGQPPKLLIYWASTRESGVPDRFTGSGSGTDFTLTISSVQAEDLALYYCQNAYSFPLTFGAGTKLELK" measured_metric=log10(EC50) obs_value=0.64
binder="420H3H9 (antibody, V domains shown, mouse hybridoma mAb) VH: DVQLVESGGGLVQPGGSRKLSCAASGFTFSSFGMHWVRQAPEKGLEWVAYISSGSSTIYYAHSVKGRFTISRDNPKNTLFLQMTSLGSEDTAMYYCARFYYGNSFAYWGQGTLVTVSA VL: DIVMTQSPSSLTVTAGEKVTLSCKSSQSLLNSGNQKNYLTWYQQKPGQPPKMLIYWASTRESGVPDRFTGSGSGTDFTLTISSVQAEDLADYYCQNAYTYPLTFGAGTRLELK" measured_metric=log10(EC50) obs_value=1.32
binder="406G3C4 (antibody, V domains shown, mouse hybridoma mAb) VH: EIQLQQSGPELMKPGASVRISCKASGYSFISYYIYWVKQSHGKGLEWIGYIDPFNGNTNYNQKFKGKATLTVDRSSSTAYIHLNSLTSEDSAVYYCAIVNGYGRGAMDYWGQGTSVTVSS VL: QIVLTQSPAIMSASPGEKVTMTCSASSSISYMHWYQQKSGTSPKRWIYDTSKLASGVPARFSGSGSGTSYSLTISSMEAEDAATYYCQQWSSNPLTFGDGTKLELK" measured_metric=log10(EC50) obs_value=1.10
binder="413B1C9 (antibody, V domains shown, mouse hybridoma mAb) VH: DVQLVESGGGLVQPGGSRKLSCAASGFTFSSFGMHWVRQAPEKGLEWVAYISSGSSPIYYADTVKGRFTISRDNPKNTLFLQMTSLRSEDTAMYFCARFYYGNSFDHWGQGTLVTVSA VL: DIVMTQSPSSLTVTTGEKVSMSCKSSQSLFNRGNQKSYLTWYQQKPGQPPKLLIYWASTRESGVPDRFTGSGSGTDFTLTISSVQAEDLAVYYCQNNYIYPLTFGAGTKLELK" measured_metric=log10(EC50) obs_value=1.39
binder="235A10C9 (antibody, V domains shown, mouse hybridoma mAb) VH: QAYLQQSGAELVRSGASVKMSCKASGYTFASHNMHWVKQTPGQGLEWIGYIYPGNSGTKYNQKFTGKATLTADTSSSTAYMQITSLTSEDSAVYFCARDYYGNSFAYWGQGTLVTVSA VL: DIVMTQSPSSLTEKAGEKVSMRCKSSQSLLNSGNQKNYLTWYQQKPGQPPKLLIYWASTRESGVPDRFTGSGSGTDFTLTISSVQADDLAVYYCQNDYMFPFTFGAGTKLELK" measured_metric=log10(EC50) obs_value=-0.20
